Collected TGI values appear next to each entry.
Test system: MDA-MB-231 breast
method: NCI tumour cell line growth inhibition, 48 h
# number only, unit µM dropped from output

The following compounds have reported results that may help.
{"compound": "C=C1C(=O)O[C@H]2C/C(C)=C/CC[C@]3(C)CCC[C@](C)(CC[C@@H]12)O3", "tested target": "MDA-MB-231 breast", "observation type": "TGI", "output unit": "µM", "data value": 46.2}
{"compound": "CC(=O)OC(C)(C)/C=C/C(=O)[C@](C)(O)[C@H]1[C@H](O)C[C@@]2(C)[C@@H]3CC=C4[C@@H](C=C(O)C(=O)C4(C)C)[C@]3(C)C(=O)C[C@]12C", "tested target": "MDA-MB-231 breast", "observation type": "TGI", "output unit": "µM", "data value": 3.39}
{"compound": "COC(=O)C1(C)CC2C(C)(CCC3(C)C4=CC=C5C(=CC(=O)C(O)=C5C)C4(C)CCC23C)CC1O (stereo not given)", "tested target": "MDA-MB-231 breast", "observation type": "TGI", "output unit": "µM", "data value": 1.77}

Query: // fetch TGI given entry `COc1ccc(-c2nn(-c3ccc(NC(=O)c4cc(Cl)cc(Cl)c4)cc3)cc2-c2ccncc2)cc1Cl`
Reply: 4.85

====

System: HOP-18 NSCLC
method: NCI tumour cell line growth inhibition, 48 h
observation type: TGI

The following molecules have reported results that may help.
{"molecule": "C/C(=N\\NC(=S)NC(CCC(=O)O)C(=O)O)c1cnccn1 (stereo not drawn)", "TGI": "> 100 µM"}
{"molecule": "Cc1cc(C)c2c(c1)N[S@@](=O)S2", "TGI": "92.1 µM"}

Consider the record given below.
Query: // fetch TGI given entry COc1cc2c(cc1O)CN1CCC23C=C[C@@H](O)CC13 (stereo partly drawn)
Reply: > 100 µM

====

Tested on: BT-549 breast
method: NCI tumour cell line growth inhibition, 48 h
observation type: TGI

The following compounds have reported results that may help.
{"compound": "CCCCCCCCCC(CCCC(O)CC(=O)O)OC1OC(COC2OC(C)C(OC(C)=O)C(O)C2O)C(O)C(O)C1OC1OC(CO)C(O)C(O)C1OC1OC(C)C(OC(=O)CC(C)C)C(O)C1O (stereo unspecified)", "tested target": "BT-549 breast", "observation type": "TGI", "data value": "> 35 µM"}
{"compound": "O=[N+]([O-])c1ccc(C2=NOC(c3ccc(Cl)cc3)N2C23CC4CC(CC(C4)C2)C3)cc1 (stereo unspecified)", "tested target": "BT-549 breast", "observation type": "TGI", "data value": "> 100 µM"}
{"compound": "CCc1cc2c(c3c1CCCC3)CC1(Cc3ccc(C(=O)OC)cc3C1)C2 (stereo unspecified)", "tested target": "BT-549 breast", "observation type": "TGI", "data value": "> 100 µM"}
{"compound": "CC(c1ccccc1)[C@@H](C(=O)Nc1ccc(I)cc1F)N1C(=O)N[C@H](c2ccc(OC[C@H](O)CO)cc2)C1=O (stereo partly specified)", "tested target": "BT-549 breast", "observation type": "TGI", "data value": "> 23.7 µM"}
{"compound": "O=C1/C(=C/c2[nH]ncc2-c2ccc(Cl)cc2)C(=O)N(c2ccccc2)C1c1ccccc1 (stereo unspecified)", "tested target": "BT-549 breast", "observation type": "TGI", "data value": "43.7 µM"}
{"compound": "CCCCN=C(N)c1ccc(N2CCCN(c3ccc(C(N)=NCCCC)cc3)CC2)cc1", "tested target": "BT-549 breast", "observation type": "TGI", "data value": "> 58.3 µM"}

Query: // fetch TGI given entry `CCOC(=O)c1nc2ccccc2nc1Nc1ccc(OC)cc1`
Reply: 73.6 µM

Query: // fetch TGI given entry `COc1c(O)cc2c(c1O)C(=O)C1=C(CCCC1)C2=O`
Reply: > 100 µM

Query: // fetch TGI given entry `CCN(CC)C(=S)SC1C(=O)NC(=O)NC1=O`
Reply: > 100 µM

Query: // fetch TGI given entry COc1cc(C2c3cc4c(cc3OC(NCCc3ccccc3)C2C)OCO4)cc(OC)c1OC (stereo unspecified)
Reply: 22.7 µM

Query: // fetch TGI given entry COC1CC(C)([N+](=O)[O-])C(O)C(C)O1 (stereo unspecified)
Reply: > 100 µM
